test system: NCI-H1792; experiment: cells; type: cell-based; settings: Homo sapiens, NCI-H1792, 72 h
Readout Label: IC50 (nM)

- Molecule: "CN(C)C(=O)c1cc2cnc(Nc3ccc(N4CCNCC4)cn3)nc2n1C1CCCC1 [Ribociclib]"
  Assayed Target: "NCI-H1792"
  Number: 610

---

Each record here notes measured pEC50.
tested on: panel of nearly 500 cancer cell lines; assay: Cancer Cell Line Encyclopedia profiling, 3-day CellTiter-Glo; type: cell-based; settings: Homo sapiens, OVCAR-4
pEC50: −log10 of the molar value.
Readout Label: pEC50

- Compound: "CN(C)C(=O)c1cc2cnc(Nc3ccc(N4CCNCC4)cn3)nc2n1C1CCCC1"
  Readout Label: "pEC50"
  Result: "< 5.10"
- Compound: "CC(=O)c1c(C)c2cnc(Nc3ccc(N4CCNCC4)cn3)nc2n(C2CCCC2)c1=O [Palbociclib, reference compound]"
  Readout Label: "pEC50"
  Result: "< 5.10"
